System: S. cerevisiae
measurement protocol: Toxicity of organic phase (overlay/underlay) compounds to growth of the host strain
condition notes: compound as organic phase, under the test conditions
experimental readout: toxicity to growth

| compound | toxicity to growth |
| --- | --- |
| CCCCCCCCCCCC(=O)OCC [ethyl laurate] | non-toxic |
| CCCCCCCCCCCC | Lack of toxicity |
| CCCCCCCCCCCCCC(=O)OCC [ethyl myristate] | non-toxic |
| CCCCCCCCCCCCCC(=O)OC [methyl myristate] | non-toxic |
| CCCCCCCCCCCCCCCC | Lack of toxicity |

// query Which measured toxicity to growth value corresponds to CCCCCCCCOC(C)=O [octyl acetate] ?
// result toxic

// query Which measured toxicity to growth value corresponds to CCCCCCCCCCCCCC(=O)OC(C)C [IPM, isopropyl myristate] ?
// result non-toxic

// query Which measured toxicity to growth value corresponds to CCCCCCCCCCCC(=O)OCCCC [butyl laurate] ?
// result non-toxic

// query Which measured toxicity to growth value corresponds to `CCCCCCCCCCCCCC` ?
// result Lack of toxicity
